Data origin, for the record: patent US10947242B2

- Target or system: Human recombinant PDE2A (hPDE2A) (Homo sapiens, UniProt O00408)
- Construct: His tag (inferred from metal chelate purification); made in house; host or cells: Sf9 insect cells (baculovirus)
- Sequence (O00408 whole entry): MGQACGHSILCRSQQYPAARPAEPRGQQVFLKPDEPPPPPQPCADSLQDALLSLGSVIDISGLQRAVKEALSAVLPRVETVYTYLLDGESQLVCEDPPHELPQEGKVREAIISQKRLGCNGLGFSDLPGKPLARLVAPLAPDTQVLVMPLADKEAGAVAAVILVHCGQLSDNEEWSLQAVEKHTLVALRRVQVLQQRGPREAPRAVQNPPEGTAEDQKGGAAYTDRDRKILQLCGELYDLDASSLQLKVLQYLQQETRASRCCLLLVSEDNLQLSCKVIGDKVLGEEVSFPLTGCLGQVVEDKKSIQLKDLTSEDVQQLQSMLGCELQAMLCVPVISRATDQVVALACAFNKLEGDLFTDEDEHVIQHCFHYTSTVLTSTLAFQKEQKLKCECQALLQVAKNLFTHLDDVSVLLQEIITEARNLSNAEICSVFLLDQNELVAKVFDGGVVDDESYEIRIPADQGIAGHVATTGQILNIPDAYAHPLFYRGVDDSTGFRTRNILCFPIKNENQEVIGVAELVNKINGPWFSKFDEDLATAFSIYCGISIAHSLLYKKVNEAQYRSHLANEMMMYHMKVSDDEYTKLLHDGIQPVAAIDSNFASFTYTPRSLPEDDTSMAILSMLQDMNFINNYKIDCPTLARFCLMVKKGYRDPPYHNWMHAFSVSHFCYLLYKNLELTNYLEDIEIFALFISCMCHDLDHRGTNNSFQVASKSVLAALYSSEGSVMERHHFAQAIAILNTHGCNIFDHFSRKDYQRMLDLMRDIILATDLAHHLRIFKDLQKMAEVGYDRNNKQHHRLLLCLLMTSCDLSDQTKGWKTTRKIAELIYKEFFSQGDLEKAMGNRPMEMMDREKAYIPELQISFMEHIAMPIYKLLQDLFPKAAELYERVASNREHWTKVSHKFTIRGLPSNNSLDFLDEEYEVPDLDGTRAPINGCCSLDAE
- Assay details: In vitro assay PDE2A (SPA, 3H-cGMP hydrolysis)
- Type: biochemical
- Conditions used: read-out: hPDE2A Emax
What Emax was measured for each of the following?
Number in %, nothing else.

The compound COc1ncc(C(=O)N2CC[C@@H](C)[C@H](c3cc(C(F)F)nc4ncnn34)C2)cc1Cl on Human recombinant PDE2A (hPDE2A) (Homo sapiens, UniProt O00408): Emax was 101

The compound C[C@@H]1CCN(C(=O)c2cc(C(C)(C)C)on2)C[C@H]1c1cc(C(F)F)nc2ncnn12 on Human recombinant PDE2A (hPDE2A) (Homo sapiens, UniProt O00408): Emax was 99

The compound C[C@@H]1CCN(C(=O)c2csc(N)n2)C[C@H]1c1cc(C(F)F)nc2ncnn12 on Human recombinant PDE2A (hPDE2A) (Homo sapiens, UniProt O00408): Emax was 100

The compound Cc1cc([C@H]2CN(C(=O)c3cc(C)c(Cl)c(C)c3)CC[C@@H]2C)n2ncnc2n1 on Human recombinant PDE2A (hPDE2A) (Homo sapiens, UniProt O00408): Emax was 100

* * *

- Target or system: Human recombinant PDE2A (hPDE2A) (Homo sapiens)
- Construct: His tag (inferred from metal chelate purification); made in house; host or cells: Sf9 insect cells (baculovirus)
- Assay details: In vitro assay PDE2A (SPA, 3H-cGMP hydrolysis)
- Format: biochemical
- Conditions used: human recombinant PDE2A, 10 μM cGMP substrate; read-out: hPDE2A pIC50 (converted)
What IC50 was measured for each of the following?
Number in nM, nothing else.

Entry C[C@@H]1CCN(C(=O)c2ncc(C#N)cc2Cl)C[C@H]1c1cc(C(F)F)nc2ncnn12 — recorded IC50 = 380

Entry C[C@@H]1CCN(C(=O)c2cc(Cl)ncc2F)C[C@H]1c1cc(C(F)F)nc2ncnn12 — recorded IC50 = 4.17

Entry C[C@@H]1CCN(C(=O)c2ccc(O)nn2)C[C@H]1c1cc(C(F)F)nc2ncnn12 — recorded IC50 = 209

Entry C[C@@H]1CCN(C(=O)c2cc(OC(F)F)cc(C3CC3)c2)C[C@H]1c1cc(C(F)F)nc2ncnn12 — recorded IC50 = 0.372

* * *

- Target or system: Human recombinant PDE10A (hPDE10A) (Homo sapiens, UniProt Q9Y233)
- Construct: His tag (inferred from metal chelate purification); made in house; host or cells: Sf9 insect cells (baculovirus)
- Sequence (Q9Y233 267-1055): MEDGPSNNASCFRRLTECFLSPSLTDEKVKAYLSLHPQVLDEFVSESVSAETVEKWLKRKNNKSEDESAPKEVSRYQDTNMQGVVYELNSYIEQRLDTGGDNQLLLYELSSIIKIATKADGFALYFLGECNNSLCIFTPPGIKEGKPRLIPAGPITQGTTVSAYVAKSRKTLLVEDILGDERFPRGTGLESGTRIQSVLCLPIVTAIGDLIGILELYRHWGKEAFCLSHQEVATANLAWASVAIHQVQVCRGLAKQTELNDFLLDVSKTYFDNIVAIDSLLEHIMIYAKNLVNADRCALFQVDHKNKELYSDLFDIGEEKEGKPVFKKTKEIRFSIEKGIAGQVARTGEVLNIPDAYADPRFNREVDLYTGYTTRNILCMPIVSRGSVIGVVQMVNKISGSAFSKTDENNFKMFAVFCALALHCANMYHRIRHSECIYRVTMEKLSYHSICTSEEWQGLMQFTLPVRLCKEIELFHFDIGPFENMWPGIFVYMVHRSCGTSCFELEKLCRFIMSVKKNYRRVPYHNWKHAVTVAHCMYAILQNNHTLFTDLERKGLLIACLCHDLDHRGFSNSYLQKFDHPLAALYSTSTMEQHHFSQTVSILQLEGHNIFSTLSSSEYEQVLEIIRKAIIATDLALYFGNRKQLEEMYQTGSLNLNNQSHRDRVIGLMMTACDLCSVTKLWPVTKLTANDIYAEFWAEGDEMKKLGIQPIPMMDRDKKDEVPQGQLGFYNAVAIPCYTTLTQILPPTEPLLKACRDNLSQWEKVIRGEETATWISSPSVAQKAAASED
- Assay details: In vitro assay PDE10A, human clone (SPA, 3H-cAMP hydrolysis)
- Assay type: biochemical
- Conditions used: human clone (h), default; read-out: hPDE10A2 pIC50 (converted)
Classification by IC50 | ranges: Low = under 80 nM, Mid = from 80 nM up to 1000 nM, High = 1000 nM and over

## Task Assign a category based on measured IC50 for C[C@@H]1CCN(C(=O)c2ccnc(C3CC3)c2F)C[C@H]1c1cc(C(F)F)nc2ncnn12 [Compound 120] and give only the class name.
## Result Mid

## Task Assign a category based on measured IC50 for C[C@H]1CCN(C(=O)c2ccc3ncsc3c2)C[C@]1(F)c1cc(C(F)F)nc2ncnn12 [Compound 34] and give only the class name.
## Result High

## Task Assign a category based on measured IC50 for Cc1cc(C(=O)N2CC[C@@H](C)[C@@](F)(c3cc(C(F)F)nc4ncnn34)C2)cc(C)n1 [Compound 81] and give only the class name.
## Result High

## Task Assign a category based on measured IC50 for Cc1cc(C(=O)N2CC[C@@H](C)[C@](F)(c3cc(C(F)F)nc4ncnn34)C2)cc(C)n1 [Compound 82] and give only the class name.
## Result High

## Task Assign a category based on measured IC50 for Cc1cc(C(=O)N2CC[C@@H](C)[C@H](c3cc(C)nc4ncnn34)C2)cc(C(F)(F)F)n1 [Compound 4] and give only the class name.
## Result Low

## Task Assign a category based on measured IC50 for Cc1nccc(C(=O)N2CC[C@@H](C)[C@H](c3cc(C(F)F)nc4ncnn34)C2)c1F [Compound 68] and give only the class name.
## Result High

## Task Assign a category based on measured IC50 for C[C@@H]1CCN(C(=O)c2ccc(F)c(C(F)F)c2)C[C@H]1c1cc(C(F)F)nc2ncnn12 [Compound 191] and give only the class name.
## Result Mid

## Task Assign a category based on measured IC50 for Cc1cc([C@@H]2CN(C(=O)c3ccc4occc4c3)CC[C@H]2C)n2ncnc2n1 [Compound 6] and give only the class name.
## Result Low

## Task Assign a category based on measured IC50 for COc1cc(C(=O)N2CC[C@@H](C)[C@H](c3cc(C(F)F)nc4ncnn34)C2)cc(C(C)C)n1 [Compound 122] and give only the class name.
## Result Low

## Task Assign a category based on measured IC50 for CC1(c2ccnc3ncnn23)CCCN(C(=O)c2ccc3occc3c2)C1 (stereo not shown) [Compound 202] and give only the class name.
## Result High

## Task Assign a category based on measured IC50 for Cc1nc(C(=O)N2CC[C@@H](C)[C@H](c3cc(C(F)F)nc4ncnn34)C2)c(C)o1 [Compound 252] and give only the class name.
## Result High

## Task Assign a category based on measured IC50 for COc1cccc2cc(C(=O)N3CC[C@@H](C)[C@H](c4cc(C(F)F)nc5ncnn45)C3)oc12 [Compound 105] and give only the class name.
## Result Low

## Task Assign a category based on measured IC50 for C[C@@H]1CCN(C(=O)c2ccc3ncsc3c2)C[C@H]1c1cc(C(F)F)nc2ncnn12 [Compound 228] and give only the class name.
## Result Low

## Task Assign a category based on measured IC50 for Cc1cc(C(=O)N2CC[C@@H](C)[C@H](c3cc(C(F)F)nc4ncnn34)C2)cc(C)c1F [Compound 115] and give only the class name.
## Result Low

## Task Assign a category based on measured IC50 for Cc1nc(C(=O)N2CC[C@@H](C)[C@H](c3cc(C(F)F)nc4ncnn34)C2)c(C(F)(F)F)o1 [Compound 161] and give only the class name.
## Result High

## Task Assign a category based on measured IC50 for Cc1cc(C#N)cc(C(=O)N2CC[C@@H](C)[C@H](c3cc(C(F)F)nc4ncnn34)C2)c1 [Compound 131] and give only the class name.
## Result Low

## Task Assign a category based on measured IC50 for C[C@@H]1CCN(C(=O)c2ccc(Cl)s2)C[C@H]1c1cc(C(F)F)nc2ncnn12 [Compound 180] and give only the class name.
## Result Mid

## Task Assign a category based on measured IC50 for Cc1cc(C(=O)N2CC[C@@H](C)[C@H](c3cc(C(F)F)nc4ncnn34)C2)c(Cl)cn1 [Compound 51] and give only the class name.
## Result High

## Task Assign a category based on measured IC50 for Cc1csc(C(=O)N2CC[C@@H](C)[C@H](c3cc(C(F)F)nc4ncnn34)C2)c1Cl [Compound 147] and give only the class name.
## Result Mid

## Task Assign a category based on measured IC50 for Cc1cc([C@@H]2CN(C(=O)c3nc4ccccc4o3)CC[C@H]2C)n2ncnc2n1 [Compound 21] and give only the class name.
## Result Mid

## Task Assign a category based on measured IC50 for Cc1cc(C(=O)N2CC[C@@H](C)[C@H](c3cc(C(F)F)nc4ncnn34)C2)c(C)cn1 [Compound 32] and give only the class name.
## Result High

## Task Assign a category based on measured IC50 for Cc1csc(C(=O)N2CC[C@H](C)[C@@H](c3cc(C(F)F)nc4ncnn34)C2)c1 [Compound 213] and give only the class name.
## Result High

## Task Assign a category based on measured IC50 for CC(C)c1n[nH]cc1C(=O)N1CC[C@@H](C)[C@H](c2cc(C(F)F)nc3ncnn23)C1 [Compound 61] and give only the class name.
## Result Mid

## Task Assign a category based on measured IC50 for C[C@@H]1CCN(C(=O)c2ccn(C)n2)C[C@H]1c1cc(C(F)F)nc2ncnn12 [Compound 139] and give only the class name.
## Result High

## Task Assign a category based on measured IC50 for Cc1ccc(C(=O)N2CC[C@@H](C)[C@H](c3cc(C(F)F)nc4ncnn34)C2)c(C)n1 [Compound 143] and give only the class name.
## Result High

## Task Assign a category based on measured IC50 for C[C@@H]1CCN(C(=O)c2ncc[nH]2)C[C@H]1c1cc(C(F)F)nc2ncnn12 [Compound 240] and give only the class name.
## Result High

## Task Assign a category based on measured IC50 for C[C@@H]1CCN(C(=O)c2ccncc2N)C[C@H]1c1cc(C(F)F)nc2ncnn12 [Compound 142] and give only the class name.
## Result High

## Task Assign a category based on measured IC50 for Cc1cc([C@@H]2CN(C(=O)c3ccc4ncsc4c3)CC[C@H]2C)n2ncnc2n1 [Compound 2a] and give only the class name.
## Result Low

## Task Assign a category based on measured IC50 for COc1ncc(C(=O)N2CC[C@@H](C)[C@H](c3cc(C(F)F)nc4ncnn34)C2)cc1Cl [Compound 134] and give only the class name.
## Result Mid

## Task Assign a category based on measured IC50 for C[C@@H]1CCN(C(=O)c2ccc3nc(N)sc3c2)C[C@H]1c1cc(C(F)F)nc2ncnn12 [Compound 88] and give only the class name.
## Result Low
